B1: MIA2 (parent)
chain: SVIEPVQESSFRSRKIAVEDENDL

Variants of: B1
Assay: protein stability index of a GFP-peptide fusion (GPS, HEK-293T) (PSI 1-6); higher = more stable;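 note: lentivirally expressed fusions sorted by FACS into six bins by GFP to DsRed ratio, PSI derived from sequencing read proportions per bin multiplied by bin number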
Details: c terminus: a fixed tail appended
assay_readout: protein stability index

Specify measured protein stability index for "F11D" . 5.92

Give the reported protein stability index for this variant. "D23W" 3.86

Identify protein stability index associated with the variant "E21I" 4.46

Answer with reported protein stability index of "I3Q" 4.57

Provide one value: measured protein stability index of "S1P" 5.59

Give protein stability index for "E19N" 5.08

Give reported protein stability index value for "D23Y" 4.24

Note protein stability index for the variant shown: "E4D" 5.01

Return reported protein stability index. Input variant: "L24E" 5.67

Determine from records and report protein stability index for "S1K" 5.13

Please report protein stability index for the following variant: "S13D" 5.05

Answer with the recorded protein stability index of "V2K" only. 5.38

Give recorded protein stability index. "E4N" 5.21

Give reported protein stability index value for "E8A" 5.28

Check the records and state protein stability index for "V18T" 4.94

Recall and state the measured protein stability index for "E8D" . 4.48

Supply measured protein stability index of "Q7Y" in your reply. 5.21

Identify the reported protein stability index for the following entry. "S1C" 5.53

Consider the variant "S1A" . State its measured protein stability index. 5.01

Fill in protein stability index for record "E4I" 4.62

Annotate the variant "E4V" with its measured protein stability index. 4.71

Output protein stability index of "S9H" 4.98

Using the record for "A17L" , state its measured protein stability index. 4.97

Hello, please tell me recorded protein stability index for this one: "D23V" 5.1

// Input: "E21W" . Output its protein stability index only. 3.85

Give reported protein stability index value for "D23G" 4.72

Output protein stability index of "P5L" 3.56

Hello, please tell me recorded protein stability index for this one: "V2I" 4.69

Give protein stability index for the following variant: "A17C" 4.81

Hello, please tell me recorded protein stability index for this one: "S1N" 5.69

Quick one: give measured protein stability index for "S9V" 5.19

Give protein stability index for the following variant: "I3P" 5.13

Given "R12S" , respond with its protein stability index. 5.94

Just for reference, the supplement of paper PMC10567573 is where these values come from.
